Protein target, amino acids: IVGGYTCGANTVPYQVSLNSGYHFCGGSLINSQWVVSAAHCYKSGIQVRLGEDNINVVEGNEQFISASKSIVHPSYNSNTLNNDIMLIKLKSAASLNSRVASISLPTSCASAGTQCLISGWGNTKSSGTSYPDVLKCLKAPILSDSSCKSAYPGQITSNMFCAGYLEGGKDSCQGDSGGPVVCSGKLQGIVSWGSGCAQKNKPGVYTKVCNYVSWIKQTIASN
Below: a set of entries, each annotated with reported Ki.
Provide only the numeric value, understood in µM.

Example results:
molecule: Cc1ccc(NCCc2ccccc2)c(=O)n1CC(=O)NCC1CCc2n[nH]cc2C1 (centres unmarked)
measurement.units: µM
Ki: 421
--
molecule: Cc1ccc(NCCc2ccccc2)c(=O)n1CC(=O)NC1CCc2nc(N)sc2C1 (centres unmarked)
measurement.units: µM
Ki: 147
--
molecule: Cc1ccc(NS(=O)(=O)Cc2ccccc2)c(=O)n1CC(=O)NCC1CCc2n[nH]cc2C1 (centres unmarked)
measurement.units: µM
Ki: 376
--
molecule: Cc1ccc(NS(=O)(=O)Cc2ccc(F)cc2Cl)c(=O)n1CC(=O)NC1CCc2nc(N)sc2C1 (centres unmarked)
measurement.units: µM
Ki: 193
--
molecule: Cc1ccc(NS(=O)(=O)Cc2ccccc2)c(=O)n1CC(=O)NC1CCc2n[nH]cc2C1 (centres unmarked)
measurement.units: µM
Ki: 438

Q: Data request, read-out Ki, for CCCCS(=O)(=O)Nc1ccc(C)n(CC(=O)NC2CCc3nc(N)sc3C2)c1=O (centres unmarked)
A: 50

----------
Below: a set of entries, each annotated with reported Ki trypsin/ Ki thrombin.
Biological target: Trypsin (bovine) (Bos taurus, UniProt P00760)
Construct: purchased Sigma
Sequence (P00760 24-246): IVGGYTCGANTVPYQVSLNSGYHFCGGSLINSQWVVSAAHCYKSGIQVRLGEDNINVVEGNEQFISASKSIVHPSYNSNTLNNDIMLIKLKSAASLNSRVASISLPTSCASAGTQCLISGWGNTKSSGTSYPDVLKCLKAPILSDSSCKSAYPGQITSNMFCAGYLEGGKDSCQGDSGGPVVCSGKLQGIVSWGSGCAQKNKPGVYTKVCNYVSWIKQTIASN
Assay: Determination of selectivity of the inhibitor activity against thrombin with respect to trypsin inhibition (chromogenic substrate S-2222)
Assay type: biochemical
Conditions: selectivity, ratio of Ki for trypsin to Ki for thrombin
In your answer, state the number alone without any accompanying words.

Example results:
molecule: Cc1ccc(NS(=O)(=O)Cc2ccccc2)c(=O)n1CC(=O)NC1CCc2nc(N)sc2C1 (stereo not drawn)
target.or.system: Trypsin (bovine) (Bos taurus, UniProt P00760)
Ki trypsin/ Ki thrombin: 1625
//
molecule: CCCCS(=O)(=O)Nc1ccc(C)n(CC(=O)NC2CCc3nc(N)sc3C2)c1=O (stereo not drawn)
target.or.system: Trypsin (bovine) (Bos taurus, UniProt P00760)
Ki trypsin/ Ki thrombin: 37
//
molecule: Cc1ccc(NCCc2ccccc2)c(=O)n1CC(=O)NC1CCc2nc(N)sc2C1 (stereo not drawn)
target.or.system: Trypsin (bovine) (Bos taurus, UniProt P00760)
Ki trypsin/ Ki thrombin: 213
//
molecule: Cc1ccc(NS(=O)(=O)Cc2ccccc2)c(=O)n1CC(=O)NC1CCc2n[nH]cc2C1 (stereo not drawn)
target.or.system: Trypsin (bovine) (Bos taurus, UniProt P00760)
Ki trypsin/ Ki thrombin: 93
//
molecule: Cc1ccc(NS(=O)(=O)Cc2ccccc2)c(=O)n1CC(=O)NCC1CCc2n[nH]cc2C1 (stereo not drawn)
target.or.system: Trypsin (bovine) (Bos taurus, UniProt P00760)
Ki trypsin/ Ki thrombin: 1790

Q: Data request, read-out Ki trypsin/ Ki thrombin, for Cc1ccc(NS(=O)(=O)Cc2ccc(F)cc2Cl)c(=O)n1CC(=O)NC1CCc2nc(N)sc2C1 (stereo not drawn)
A: 1097

Q: Input Cc1ccc(NCCc2ccccc2)c(=O)n1CC(=O)NCC1CCc2n[nH]cc2C1 (stereo not drawn)
A: 526
